SYSTEM_TESTED: UniProt Q16739
Sequence (Q16739 whole entry): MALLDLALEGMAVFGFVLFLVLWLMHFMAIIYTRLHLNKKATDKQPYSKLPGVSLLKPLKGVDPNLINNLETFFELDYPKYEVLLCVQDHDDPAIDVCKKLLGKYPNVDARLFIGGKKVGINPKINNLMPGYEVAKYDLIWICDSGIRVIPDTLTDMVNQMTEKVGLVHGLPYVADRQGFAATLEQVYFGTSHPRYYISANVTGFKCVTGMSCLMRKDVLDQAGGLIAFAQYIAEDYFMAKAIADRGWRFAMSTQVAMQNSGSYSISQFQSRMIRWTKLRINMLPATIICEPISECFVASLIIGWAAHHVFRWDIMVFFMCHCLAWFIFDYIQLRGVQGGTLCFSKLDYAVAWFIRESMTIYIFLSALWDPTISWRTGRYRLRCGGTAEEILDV
TEST_NAME: UDP-Glo glucosylceramide synthase biochemical assay
EXPERIMENTAL_SETUP: endogenous GCS in Golgi preparations from human A375 malignant melanoma skin cells; C6 ceramide and UDP-glucose substrates; 20 h incubation; UDP detected by luminescence
pEC50: −log10 of the molar value.
Tick condition met if pEC50 is 8 or greater. Tick condition not met if pEC50 is less than 8.

Use the examples below as a reference point.
{"COMPOUND": "CC(C)(O)c1cn2cc(Cl)cc(-c3ccc(F)cc3OCC(F)(F)F)c2n1", "CATEGORY": "condition not met"}
{"COMPOUND": "O=C(N[C@H]1CC[C@H](O)C[C@H]1F)c1cn2cc(Cl)cc(-c3ccccc3OCC(F)(F)F)c2n1 (mixture of isomers)", "CATEGORY": "condition met"}
{"COMPOUND": "OC(c1cn2cc(Cl)cc(-c3ccccc3OCC(F)(F)F)c2n1)C1CC1 (centres unmarked)", "CATEGORY": "condition met"}

Is pEC50 for O=C(N[C@H]1CC[C@H](O)C1)c1cn2cccc(-c3ccccc3OCC(F)(F)F)c2n1 (relative stereo) at or above 8?
condition not met

Is pEC50 for "CN1CC2(CN=C(c3cn4cc(Cl)cc(-c5ccccc5OCC(F)(F)F)c4n3)O2)C1" at or above 8?
condition met

Is pEC50 for O=C(c1cn2cccc(-c3ccccc3OCC(F)(F)F)c2n1)N1CCOC2(CCOC2)C1 (racemic) at or above 8?
condition not met
